Measured melting point values are reported for all entries that follow.

Example entries begin here.
COc1ccc(NC(=O)c2ccccc2F)c(C(C)=O)c1OC ... 106 to 108 °C
CC(C)(CO)N1CC(COc2cccc(Cl)c2)OC1=O (stereo not given) ... 81 to 82 °C

Query string: Give the measured melting point of CCCn1c(=O)c2[nH]c(-c3cc(C)n(CC(=O)Nc4ccc(OC)cc4)n3)nc2n(CCC)c1=O .
Result string: 293 to 296 °C

Query string: Give the measured melting point of COC(=O)C12CCC(C(=O)O)(CC1)CC2 .
Result string: 169 to 173 °C

Query string: Give the measured melting point of CC(C)(C)OC(=O)Nc1ccc2c3c(cc([N+](=O)[O-])c2c1)N(C(=O)C(F)(F)F)CC3CCl (stereo not given) .
Result string: 219 to 220 °C

---

Measured melting point values are reported for all entries that follow.

Example entries begin here.
CCC(CC)O[C@@H]1C=C(C(=O)O)C[C@H](CC(O)CN=[N+]=[N-])[C@H]1NC(C)=O (stereo partly specified) ... 126 to 127 °C
C[C@@H](S[C@H]1CO[C@H](/C=C/C=C/c2ccc(C#N)cc2)OC1)[C@](O)(Cn1cncn1)c1ccc(F)cc1F ... 147 to 149 °C

Query string: Give the measured melting point of COC(=O)CCC(=O)c1ccc(-c2ccc(C)cc2)cc1 .
Result string: 121 to 122 °C

Query string: Give the measured melting point of COc1cc(Nc2nccc(-c3cc(OC)c(OC)c(OC)c3)n2)cc(OC)c1OC .
Result string: 187 °C

Query string: Give the measured melting point of CC(C(O)CCc1ccc(OC(F)(F)F)cc1)n1cncn1 (stereo unspecified) .
Result string: 69 °C

Query string: Give the measured melting point of O=S(=O)(c1ccccc1)c1c[nH]c2ccc(CCN3CCN(Cc4ccccc4)CC3)cc12 .
Result string: 150 to 153 °C

---

Measured melting point values are reported for all entries that follow.

O=C(Nc1ccc(F)cc1)C1=C(C(=O)Nc2cc(OC3CCCC3)c(Cl)cc2F)CCCC1 ... 209 to 210 °C

Query string: Give the measured melting point of COC(=O)c1cccc(F)c1S(C)(=O)=O .
Result string: 116 °C

Query string: Give the measured melting point of CCCCCCCC(=N)NC(=S)Nc1ccc(Cl)cc1 .
Result string: 98 to 99 °C

---

parameter-measured: melting point

Example entries begin here.
CN1C(=O)C(S)=C(S)C1=O ... 145 to 148 °C
CC1(C)CC(=C(c2ccc(O)cc2)c2ccc(-c3ccccc3CO)cc2)CC(C)(C)C1 ... 171 to 172 °C
N#CCOc1cc(O)ccc1-c1nc2nccnc2[nH]1 ... 232 to 233 °C
CCCCCCCCCCCCCCCCCNC(=O)OC1CCCOC1COCC(O)CCCCCCO (stereo not given) ... 67 to 68 °C

// next item, melting point requested
Query string: Give the measured melting point of CC1(C)OC(=O)C(C=Nc2cncc(Br)c2)C(=O)O1 .
Result string: 200 to 202 °C

---

Measured melting point values are reported for all entries that follow.

Example entries begin here.
O=C(O)C(=O)c1cc(F)ccc1NC(=O)c1ccc(-c2ccccc2)cc1 ... 204 to 206 °C
O=C(O)c1cc(-c2ccc(C(F)(F)F)cc2)nc(-c2ccc(C(F)(F)F)cc2)c1 ... 289 to 290 °C

Query string: Give the measured melting point of O=C(NC(=O)c1c(F)cccc1F)Nc1ccc(OC(c2ccc(Cl)cc2)C2CC2)cc1 (stereo not drawn) .
Result string: 185 to 188 °C

Query string: Give the measured melting point of COc1cccc([C@H]2O[C@H](CC(=O)Nc3cc(CCC(=O)O)ccc3OC(C)C)C(=O)N(CC(C)(C)CO)c3ccc(Cl)cc32)c1OC .
Result string: 133 to 136 °C

All figures here come from a melting point compilation (Tetko et al.; mined from patent text by program, amines drawn as free bases though some values may be those of a salt).
